B1: HDV Ribozyme (parent)
chain: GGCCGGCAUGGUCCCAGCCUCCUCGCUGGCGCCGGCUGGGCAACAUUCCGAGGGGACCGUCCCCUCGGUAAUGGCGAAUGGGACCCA

variants of: B1; assay: self-cleavage, relative activity (ratio to wild type); higher = more cleavage; co-transcriptional
Outcome label depends on self-cleavage relative to 0.4: at/above gives criterion met, below gives criterion not met.

Input line: // inclusive: self-cleavage at least 0.4? input: A45C G74A
Output line: criterion not met

Input line: Reported self-cleavage reaches at least 0.4 for C64G A77C ?
Output line: criterion met

Input line: Check if self-cleavage >= 0.4 (inclusive). Item: C33G A78C
Output line: criterion not met

Input line: Decide: is the reported value of self-cleavage for U9G C36G equal to or greater than 0.4?
Output line: criterion not met

Input line: Please indicate if the recorded self-cleavage for G50C A87C meets or exceeds 0.4.
Output line: criterion met

Input line: For this variant, is measured self-cleavage 0.4 or higher? A16C U72C
Output line: criterion not met

Input line: Identify whether the reported self-cleavage of the following variant is 0.4 or greater: G10C C49U
Output line: criterion met

Input line: Would you say G34U A45U shows self-cleavage at minimum 0.4?
Output line: criterion not met

Input line: Answer whether self-cleavage of G31C U37A is greater than or equal to 0.4.
Output line: criterion not met

Input line: Does self-cleavage meet or surpass 0.4 for U60C C63A ?
Output line: criterion met

Input line: Dear colleague, could you confirm whether A43G A71U has self-cleavage at or above 0.4?
Output line: criterion met

Input line: Form field: self-cleavage at least 0.4? Entry: C4A C84U
Output line: criterion not met

Input line: Check if self-cleavage >= 0.4 (inclusive). Item: G39A U46C
Output line: criterion not met

Input line: Please check the record U46G C48G and state if its self-cleavage is at or above 0.4.
Output line: criterion met

Input line: Hi, just wondering whether C21A C75G shows self-cleavage of 0.4 or higher.
Output line: criterion not met

Input line: Could you verify whether the entry C18A G54C shows self-cleavage of no less than 0.4?
Output line: criterion not met

Input line: Threshold query (self-cleavage >= 0.4) on C19U G55U
Output line: criterion not met
